molecular target: CB2 receptor (hCB2R), CHO cell line stably overexpressing CB2 receptor (Homo sapiens, UniProt P34972); construct: expressed in transfected cells; host or cells: CHO cell line stably overexpressing CB2 receptor (G418 selection); experiment: cAMP hCB2R functional assay (HTRF); type: cell-based; conditions: CHO cells overexpressing CB2 receptor, forskolin, normalized to Emax of CP55940 (100%)
Sequence (P34972 whole entry): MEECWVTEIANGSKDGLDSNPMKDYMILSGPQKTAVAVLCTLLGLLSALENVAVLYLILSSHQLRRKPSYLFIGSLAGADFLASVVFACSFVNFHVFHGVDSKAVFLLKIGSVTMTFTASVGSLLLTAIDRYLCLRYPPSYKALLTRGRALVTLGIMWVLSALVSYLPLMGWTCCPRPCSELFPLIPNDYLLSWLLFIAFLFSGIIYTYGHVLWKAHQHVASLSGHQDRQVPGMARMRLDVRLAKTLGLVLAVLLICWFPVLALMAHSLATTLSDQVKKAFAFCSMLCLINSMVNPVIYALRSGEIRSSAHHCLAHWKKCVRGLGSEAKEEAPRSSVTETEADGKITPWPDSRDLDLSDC
test.readout: Functionality

molecule	recorded.measurement
CCCCC[C@@H](c1cccc(F)c1)C(C)(C)c1cc(OC)c([C@H]2C=C(CO)[C@H]3C[C@@H]2C3(C)C)c(OC)c1	inverse agonist
CCCCC[C@@H](CC)C(C)(C)c1cc(OC)c([C@H]2C=C(CO)[C@H]3C[C@@H]2C3(C)C)c(OC)c1 (single isomer, unassigned)	antagonist
CCCCC[C@@H](C(F)(F)F)C(C)(C)c1cc(OC)c([C@H]2C=C(CO)[C@H]3C[C@@H]2C3(C)C)c(OC)c1	antagonist
COc1cc(C(C)(C)[C@H](CCCCCN=[N+]=[N-])c2ccccc2)cc(OC)c1[C@H]1C=C(CNC(=O)CCCCCCNc2ccc([N+](=O)[O-])c3nonc23)[C@H]2C[C@@H]1C2(C)C	inverse agonist
CCCCCC(CCC)C(C)(C)c1cc(OC)c([C@H]2C=C(CO)[C@H]3C[C@@H]2C3(C)C)c(OC)c1 (some centres unmarked)	inverse agonist
COc1cc(C(C)(C)[C@H](CCCCCN=[N+]=[N-])c2ccccc2)cc(OC)c1[C@H]1C=C(CN)[C@H]2C[C@@H]1C2(C)C	inverse agonist
CCCCC[C@@H](c1ccc(F)cc1)C(C)(C)c1cc(OC)c([C@H]2C=C(CO)[C@H]3C[C@@H]2C3(C)C)c(OC)c1	antagonist
CCCCC[C@H](c1ccc(F)cc1)C(C)(C)c1cc(OC)c([C@H]2C=C(CO)[C@H]3C[C@@H]2C3(C)C)c(OC)c1	antagonist
CCCCC[C@@H](c1ccccc1)C(C)(C)c1cc(OC)c([C@H]2C=C(CO)[C@H]3C[C@@H]2C3(C)C)c(OC)c1	inverse agonist
COc1cc(C(C)(C)[C@@H](CCCCCN=[N+]=[N-])c2ccccc2)cc(OC)c1[C@H]1C=C(CN)[C@H]2C[C@@H]1C2(C)C	inverse agonist
CCCCC[C@H](c1cccc(F)c1)C(C)(C)c1cc(OC)c([C@H]2C=C(CO)[C@H]3C[C@@H]2C3(C)C)c(OC)c1	inverse agonist
CCN(CC)c1ccc2cc(/C=C/c3ccc(S(=O)(=O)[O-])c[n+]3CCCCCC(=O)NCC3=C[C@H](c4c(OC)cc(C(C)(C)[C@H](CCCCCN=[N+]=[N-])c5ccccc5)cc4OC)[C@@H]4C[C@H]3C4(C)C)c(=O)oc2c1	inverse agonist
CCCCCC(C(C)C)C(C)(C)c1cc(OC)c([C@H]2C=C(CO)[C@H]3C[C@@H]2C3(C)C)c(OC)c1 (some centres unmarked)	antagonist
C#CCCC(=O)NCC1=C[C@H](c2c(OC)cc(C(C)(C)[C@@H](CCCCCN=[N+]=[N-])c3ccccc3)cc2OC)[C@@H]2C[C@H]1C2(C)C	inverse agonist
C#CCCC(=O)NCC1=C[C@H](c2c(OC)cc(C(C)(C)[C@H](CCCCCN=[N+]=[N-])c3ccccc3)cc2OC)[C@@H]2C[C@H]1C2(C)C	inverse agonist
CCCCC[C@H](c1ccccc1)C(C)(C)c1cc(OC)c([C@H]2C=C(CO)[C@H]3C[C@@H]2C3(C)C)c(OC)c1	inverse agonist
CCN(CC)c1ccc2cc(/C=C/c3ccc(S(=O)(=O)[O-])c[n+]3CCCCCC(=O)NCC3=C[C@H](c4c(OC)cc(C(C)(C)[C@@H](CCCCCN=[N+]=[N-])c5ccccc5)cc4OC)[C@@H]4C[C@H]3C4(C)C)c(=O)oc2c1	inverse agonist

Where do the numbers come from? From patent US20260200892A1.
